Tested on: KRAS G12V-dependent Ba/F3 cells
Method Notes: Ba/F3 proliferation assay, KRAS G12V;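 further: proliferation IC50 in KRAS G12V-dependent Ba/F3 cells read by AlamarBlue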
Type: cell-based
Applied Conditions: Mus musculus, BaF3, 72 h, AlamarBlue
pIC50: −log10 of the molar value.
Measured Property: pIC50

These solved cases illustrate the format of a correct answer.
> print(dat)
                                   compound  recorded.number
1  C[C@H](Oc1cc(-n2cc(-c3cccnc3)nn2)nc(-c2noc3c2CCC[C@@]32CCCc3sc(N)c(C#N)c32)n1)[C@@H]1CCCN1C             7.62
2  CNC1CCN(c2cc(O[C@@H](C)[C@@H]3CCCN3C)nc(-c3noc4c3CCC[C@@]43CCCc4sc(N)c(C#N)c43)n2)CC1             5.87

1 = C[C@H](Oc1cc(-n2ccc(C(N)=O)n2)nc(-c2noc3c2CCC[C@@]32CCCc3sc(N)c(C#N)c32)n1)[C@@H]1CCCN1C
2 = C[C@H](Oc1cc(N2CCCC3(COC3)C2)nc(-c2noc3c2CCC[C@@]32CCCc3sc(N)c(C#N)c32)n1)[C@@H]1CCCN1C
// query Which has the smaller recorded pIC50, 1 or 2 ? When you have decided, please share the label of that item.
// result 2

###

Tested on: NCI-H2122 cells
Method Notes: NCI-H2122 CTG proliferation assay (120 h) (NSCLC, G12C)
Assay type: cell-based
Applied Conditions: Homo sapiens
pIC50: −log10 of the molar value.
Measured Property: pIC50

> print(dat)
                                   compound  recorded.number
1  C[C@H](Oc1cc(N2CCN(C)C3(COC3)C2)nc(-c2noc3c2CCC[C@@]32CCCc3sc(N)c(C#N)c32)n1)[C@@H]1CCCN1C [II-13]             5.30

P = C[C@H](Oc1cc(N2CCN(C)C2=O)nc(-c2noc3c2CCC[C@@]32CCCc3sc(N)c(C#N)c32)n1)[C@@H]1CCCN1C [II-75]
Q = C[C@H](Oc1cc(-c2cc[nH]n2)nc(-c2noc3c2CCC[C@@]32CCCc3sc(N)c(C#N)c32)n1)[C@@H]1CCCN1C [II-71]
// query Please state the entry with greater pIC50 among P and Q . Give the label under which the chosen entry appears.
// result Q

###

Test system: GP2D cells
Method Notes: GP2D proliferation assay (120 h) (colorectal cancer, G12D)
Format: cell-based
pIC50: −log10 of the molar value.
Measured Property: pIC50

> print(dat)
                        structure.as.smiles  measured.property  recorded.number
1  C[C@H](Oc1cc(N2C[C@H](C)NC3(CC3)C2)nc(-c2noc3c2CCC[C@@]32CCCc3sc(N)c(C#N)c32)n1)[C@@H]1C[C@@H](F)CN1C              pIC50             8.70

I = C[C@H](Oc1cc(-c2cccc(C(N)=O)c2)nc(-c2noc3c2CCC[C@@]32CCCc3sc(N)c(C#N)c32)n1)[C@@H]1CCCN1C
II = C[C@H](Oc1cc(N2C[C@H](C)NC3(CC3)C2)nc(-c2onc3c2CCC[C@@]32CCCc3sc(N)c(C#N)c32)n1)[C@@H]1CCCN1C
// query Between the two listed entries I and II , which has its pIC50 at the higher number? Returns: label corresponding to the selected item.
// result II

Provenance of the data: patent US20240174690A1
